- Tested on: 648629-189-R-J1-PDC spheroids with HUVEC/MSC, viability
- Protocol summary: Anticancer human tumor 648629-189-R-J1-PDC patient-derived bladder carcinoma cell line growth inhibition [PI3K]
- Reported conditions: second compound 0.00316 µM; first compound 3.16 µM; stronger effect = lower value
Observed property: viability, T/C (%)
Give just the numeric value; % need not be written.

Measured viability, T/C for this entry C=CC(=O)N1CCN(c2nc(=O)n(-c3c(C)ccnc3C(C)C)c3nc(-c4c(O)cccc4F)c(F)cc23)C(C)C1 (stereo not given) + CC(Nc1ccc2c(c1)OCCn1cc(N3C(=O)OCC3C(F)F)nc1-2)C(N)=O on 648629-189-R-J1-PDC spheroids with HUVEC/MSC, viability: 106

Measured viability, T/C for this entry Cn1nccc1Nc1nccc(-c2ccn(C(CO)c3ccc(Cl)c(F)c3)c(=O)c2)n1 (stereo not given) + CC(Nc1ccc2c(c1)OCCn1cc(N3C(=O)OCC3C(F)F)nc1-2)C(N)=O on 648629-189-R-J1-PDC spheroids with HUVEC/MSC, viability: 109

Measured viability, T/C for this entry Cn1nccc1Nc1nccc(-c2ccn(C(CO)c3ccc(Cl)c(F)c3)c(=O)c2)n1 (stereo not given) + COc1c(OCCCN2CCOCC2)ccc2c3n(c(=NC(=O)c4cnc(N)nc4)nc12)CCN3 on 648629-189-R-J1-PDC spheroids with HUVEC/MSC, viability: 98

Measured viability, T/C for this entry C[C@@H](NC(=O)c1ncnc(N)c1Cl)c1ncc(C(=O)Nc2cc(C(F)(F)F)c(Cl)cn2)s1 + COc1c(OCCCN2CCOCC2)ccc2c3n(c(=NC(=O)c4cnc(N)nc4)nc12)CCN3 on 648629-189-R-J1-PDC spheroids with HUVEC/MSC, viability: 112

Measured viability, T/C for this entry Cn1ncc(Cl)c1-c1cc(C(=O)NC(CN)Cc2cccc(F)c2)sc1Cl (stereo not given) + COc1c(OCCCN2CCOCC2)ccc2c3n(c(=NC(=O)c4cnc(N)nc4)nc12)CCN3 on 648629-189-R-J1-PDC spheroids with HUVEC/MSC, viability: 23.1

----------
Please go through the items and note down their viability, T/C.
- Test system: 648629-189-R-J1-PDC spheroids with HUVEC/MSC, viability
- Protocol summary: Anticancer human tumor 648629-189-R-J1-PDC cell line growth inhibition [PI3K];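 also: spheroids exposed to agents for seven days before reading; percent of vehicle control luminescence where 100% = DMSO treated spheroids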
- Reported conditions: second compound 3.16 µM; first compound 0.1 µM; stronger effect = lower value
Give just the numeric value; % need not be written.

Item: C#Cc1c(F)ccc2cc(O)cc(-c3ncc4c(N5CC6CCC(C5)N6)nc(OCC56CCCN5CC(F)C6)nc4c3F)c12 (stereo unspecified) + CC(Nc1ncnc2nc[nH]c12)c1cc2cccc(Cl)c2c(=O)n1-c1ccccc1 | viability, T/C: 91.4

Item: CNC(=O)c1ccc(N2C(=S)N(c3ccc(C#N)c(C(F)(F)F)c3)C(=O)C2(C)C)cc1F + Cc1nc(NC(=O)N2CCCC2C(N)=O)sc1-c1ccnc(C(C)(C)C(F)(F)F)c1 | viability, T/C: 67.1

Item: CCCS(=O)(=O)Nc1ccc(F)c(C(=O)c2c[nH]c3ncc(-c4ccc(Cl)cc4)cc23)c1F + Cc1nc(NC(=O)N2CCCC2C(N)=O)sc1-c1ccnc(C(C)(C)C(F)(F)F)c1 | viability, T/C: 65.7

Item: CC(C)NCC(C(=O)N1CCN(c2ncnc3c2C(C)CC3O)CC1)c1ccc(Cl)cc1 (stereo unspecified) + Cc1nc(NC(=O)N2CCCC2C(N)=O)sc1-c1ccnc(C(C)(C)C(F)(F)F)c1 | viability, T/C: 53.6

Item: CC1(C)CCC(CN2CCN(c3ccc(C(=O)NS(=O)(=O)c4ccc(NCC5CCOCC5)c([N+](=O)[O-])c4)c(Oc4cnc5[nH]ccc5c4)c3)CC2)=C(c2ccc(Cl)cc2)C1 + CC(Nc1ncnc2nc[nH]c12)c1cc2cccc(Cl)c2c(=O)n1-c1ccccc1 | viability, T/C: 101

Item: C=CC(=O)N1CCN(c2nc(=O)n(-c3c(C)ccnc3C(C)C)c3nc(-c4c(O)cccc4F)c(F)cc23)C(C)C1 (stereo unspecified) + CC(Nc1ncnc2nc[nH]c12)c1cc2cccc(Cl)c2c(=O)n1-c1ccccc1 | viability, T/C: 92.1

Item: CC(=O)c1c(C)c2cnc(Nc3ccc(N4CCNCC4)cn3)nc2n(C2CCCC2)c1=O + CC(Nc1ncnc2nc[nH]c12)c1cc2cccc(Cl)c2c(=O)n1-c1ccccc1 | viability, T/C: 107

Item: C[C@@H](NC(=O)c1ncnc(N)c1Cl)c1ncc(C(=O)Nc2cc(C(F)(F)F)c(Cl)cn2)s1 + CC(Nc1ncnc2nc[nH]c12)c1cc2cccc(Cl)c2c(=O)n1-c1ccccc1 | viability, T/C: 98.5

Item: CCCS(=O)(=O)Nc1ccc(F)c(C(=O)c2c[nH]c3ncc(-c4ccc(Cl)cc4)cc23)c1F + CC(Nc1ncnc2nc[nH]c12)c1cc2cccc(Cl)c2c(=O)n1-c1ccccc1 | viability, T/C: 103

Item: CC(Cn1ccc(-c2ccc(C#N)c(Cl)c2)n1)NC(=O)c1cc(C(C)O)[nH]n1 (stereo unspecified) + Cc1nc(NC(=O)N2CCCC2C(N)=O)sc1-c1ccnc(C(C)(C)C(F)(F)F)c1 | viability, T/C: 54.6

Item: Cn1ncnc1[C@H]1c2n[nH]c(=O)c3cc(F)cc(c23)N[C@@H]1c1ccc(F)cc1 + Cc1nc(NC(=O)N2CCCC2C(N)=O)sc1-c1ccnc(C(C)(C)C(F)(F)F)c1 | viability, T/C: 43.5
